Test system: murine neural precursor cells (neurosphere cultures)
assay protocol: HTS of LOPAC library against secondary neurosphere cultures, MTT proliferation assay at 3 μM, day 7 (z score, P value)
Format: cell-based, mouse
experimental setup: LOPAC primary screen, neurosphere MTT proliferation, 3 μM, day 7
Counter-ions that a name gives are not always drawn.
Known Z score of a selection of molecules

>  <molecule>
CN(C)CCC(c1ccccc1)c1ccccn1 (stereo not drawn) [Pheniramine maleate]

>  <Z score>
−0.206

$$$$
>  <molecule>
Br.CCCN(CCC)C1CCc2cccc(O)c2C1 (racemic) [(±)-8-Hydroxy-DPAT hydrobromide]

>  <Z score>
0.656

$$$$
>  <molecule>
NC(=O)c1cccc(N)c1 [3-aminobenzamide]

>  <Z score>
−1.034

$$$$
>  <molecule>
NC(=O)c1ncn([C@@H]2O[C@H](CO)[C@@H](O)[C@H]2O)c1O

>  <Z score>
1.642

$$$$
>  <molecule>
CCCCCCCCCCCCCCCC(=O)NCCO [Palmitoylethanolamide]

>  <Z score>
−0.913

$$$$
>  <molecule>
CCN1C[C@]2(C)CC[C@H](O)[C@]34C1[C@@H](C[C@H]23)[C@@]1(O)C[C@H](OC)[C@H]2C[C@@H]4[C@@H]1[C@H]2O

>  <Z score>
−1.625

$$$$
>  <molecule>
[Cl-].[Li+] [Lithium Chloride]

>  <Z score>
−0.911

$$$$
>  <molecule>
Cc1ccccc1N1C(=O)c2cc(S(N)(=O)=O)c(Cl)cc2NC1C (stereo not drawn)

>  <Z score>
−8.113

$$$$
>  <molecule>
CC(Cc1ccc(O)cc1)NCC(O)c1cc(O)cc(O)c1 (stereo not drawn) [Fenoterol hydrobromide]

>  <Z score>
−1.841

$$$$
>  <molecule>
Cc1cc(C(C)(C)C)c(O)c(C)c1CC1=NCCN1 [Oxymetazoline hydrochloride]

>  <Z score>
−2.720

$$$$
>  <molecule>
CC1CCN(CC[C@H]2CCCN2S(=O)(=O)c2cccc(O)c2)CC1.Cl [SB 269970 hydrochloride]

>  <Z score>
−1.100

$$$$
>  <molecule>
CC1COc2c(N3CCN(C)CC3)c(F)cc3c(=O)c(C(=O)O)cn1c23 (stereo not drawn)

>  <Z score>
−0.489

$$$$
>  <molecule>
CCC1(C2=NCCN2)Cc2ccccc2O1 (stereo not drawn) [Efaroxan hydrochloride]

>  <Z score>
−2.338

$$$$
>  <molecule>
COc1nc(C)nc(Cl)c1N=C1NCCN1 [Moxonidine hydrochloride]

>  <Z score>
0.217

$$$$
>  <molecule>
C=CCN1CC[C@]23CCCC[C@H]2[C@H]1Cc1ccc(O)cc13 [Levallorphan tartrate]

>  <Z score>
−0.346

$$$$
>  <molecule>
CC[C@H]1CN2CCc3cc(OC)c(OC)cc3[C@@H]2C[C@@H]1C[C@H]1NCCc2cc(OC)c(OC)cc21 [Emetine dihydrochloride hydrate]

>  <Z score>
−10.633

$$$$
>  <molecule>
Cl.Nc1ccn([C@@H]2O[C@H](CO)[C@@H](O)[C@@H]2O)c(=O)n1

>  <Z score>
−11.274

$$$$
>  <molecule>
Br.Cc1cccc(C2CN(C)CCc3c2cc(O)c(O)c3Cl)c1 (stereo not drawn) [SKF 83959 hydrobromide]

>  <Z score>
−1.357

$$$$
